Each entry below lists one item and its recorded pIC50 value.
Target: recombinant human LTA4 hydrolase (rhLTA4H) (Homo sapiens, UniProt P09960)
Construct: made in house; host or cells: Spodoptera frugiperda (Sf-9) cells, baculovirus (pFastBac1)
Sequence (P09960 1-611): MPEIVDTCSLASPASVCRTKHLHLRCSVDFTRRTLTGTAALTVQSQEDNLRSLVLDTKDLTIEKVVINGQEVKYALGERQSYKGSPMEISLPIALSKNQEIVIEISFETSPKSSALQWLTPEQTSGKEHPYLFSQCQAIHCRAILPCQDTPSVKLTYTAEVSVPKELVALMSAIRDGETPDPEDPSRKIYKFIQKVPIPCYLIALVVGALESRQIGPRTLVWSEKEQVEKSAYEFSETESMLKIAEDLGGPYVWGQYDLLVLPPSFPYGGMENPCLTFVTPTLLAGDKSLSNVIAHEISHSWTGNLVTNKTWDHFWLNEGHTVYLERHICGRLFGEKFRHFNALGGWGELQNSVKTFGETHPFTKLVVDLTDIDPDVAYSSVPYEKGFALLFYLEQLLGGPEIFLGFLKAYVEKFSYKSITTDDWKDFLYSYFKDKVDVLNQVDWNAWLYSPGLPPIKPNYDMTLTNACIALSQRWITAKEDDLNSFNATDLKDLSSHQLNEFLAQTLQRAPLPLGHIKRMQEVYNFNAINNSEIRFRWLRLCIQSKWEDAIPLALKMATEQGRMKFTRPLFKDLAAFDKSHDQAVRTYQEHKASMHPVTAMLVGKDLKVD
Assay: Recombinant human LTA4 hydrolase assay for LTA4 hydrolase inhibitor activity
Type: biochemical
Details: recombinant human LTA4H, LTB4 quantified by enzyme-linked immunoassay; average of one to three determinations; read-out: IC50
In simple prose, pIC50 is minus the logarithm base ten of a concentration in moles per litre.

>>> print(df.to_string())
                                   molecule  metric  observed_measurement
0  CCOC(=O)C1CCN(CCOc2ccc(OC(=O)N(C)c3cccc(O)c3)cc2)CC1   pIC50                  7.00
1           c1ccc(CCOc2ccc(CCNC3CC3)cc2)cc1   pIC50                  6.75
2    CCCCN(CCCC)CCc1ccc(OC(=O)Nc2ccccc2)cc1   pIC50                  9.22

Please report the measured pIC50 for "O=C(Oc1ccccc1)Oc1ccc(OCCN2CCCCC2)cc1"
9.00

Please report the measured pIC50 for "O=C(O)C1CCN(Cc2ccc(OCCc3ccccc3)cc2)CC1"
8.00

Please report the measured pIC50 for "O=C(COc1ccc(OCCN2CCCCC2)cc1)c1ccccc1"
7.24

Please report the measured pIC50 for "NC(=O)NC1CCN(Cc2ccc(OCCCc3ccccc3)cc2)CC1"
7.46
